Biological target: Clu-GABA α2β2γ2 (Canis lupus familiaris, UniProt A0A8I3RPG5+A0A8I3S1N5+E2RSQ0)
Sequence (A0A8I3S1N5 29-451): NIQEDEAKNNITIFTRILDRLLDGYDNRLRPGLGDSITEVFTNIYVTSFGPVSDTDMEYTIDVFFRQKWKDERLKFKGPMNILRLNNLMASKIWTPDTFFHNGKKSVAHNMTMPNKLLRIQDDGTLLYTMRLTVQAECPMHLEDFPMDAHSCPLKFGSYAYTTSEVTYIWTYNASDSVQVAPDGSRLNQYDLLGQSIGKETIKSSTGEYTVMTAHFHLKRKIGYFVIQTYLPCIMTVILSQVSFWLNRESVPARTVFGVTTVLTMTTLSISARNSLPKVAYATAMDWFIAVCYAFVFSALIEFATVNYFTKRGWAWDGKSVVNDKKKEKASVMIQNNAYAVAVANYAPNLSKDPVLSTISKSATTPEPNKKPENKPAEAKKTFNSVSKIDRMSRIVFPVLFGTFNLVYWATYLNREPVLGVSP
Sequence (A0A8I3RPG5 25-473): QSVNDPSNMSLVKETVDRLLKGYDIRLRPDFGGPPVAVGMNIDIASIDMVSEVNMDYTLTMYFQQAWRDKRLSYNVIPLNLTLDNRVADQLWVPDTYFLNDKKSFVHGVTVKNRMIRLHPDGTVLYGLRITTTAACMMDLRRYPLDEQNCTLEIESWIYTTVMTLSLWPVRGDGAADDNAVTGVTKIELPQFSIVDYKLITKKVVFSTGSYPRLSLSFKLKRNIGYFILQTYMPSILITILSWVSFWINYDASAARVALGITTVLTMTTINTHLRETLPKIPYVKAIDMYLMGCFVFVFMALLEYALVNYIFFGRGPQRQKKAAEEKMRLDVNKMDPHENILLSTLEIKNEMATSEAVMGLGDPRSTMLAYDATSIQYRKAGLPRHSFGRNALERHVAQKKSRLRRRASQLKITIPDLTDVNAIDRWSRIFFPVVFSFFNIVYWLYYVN
Sequence (E2RSQ0 40-467): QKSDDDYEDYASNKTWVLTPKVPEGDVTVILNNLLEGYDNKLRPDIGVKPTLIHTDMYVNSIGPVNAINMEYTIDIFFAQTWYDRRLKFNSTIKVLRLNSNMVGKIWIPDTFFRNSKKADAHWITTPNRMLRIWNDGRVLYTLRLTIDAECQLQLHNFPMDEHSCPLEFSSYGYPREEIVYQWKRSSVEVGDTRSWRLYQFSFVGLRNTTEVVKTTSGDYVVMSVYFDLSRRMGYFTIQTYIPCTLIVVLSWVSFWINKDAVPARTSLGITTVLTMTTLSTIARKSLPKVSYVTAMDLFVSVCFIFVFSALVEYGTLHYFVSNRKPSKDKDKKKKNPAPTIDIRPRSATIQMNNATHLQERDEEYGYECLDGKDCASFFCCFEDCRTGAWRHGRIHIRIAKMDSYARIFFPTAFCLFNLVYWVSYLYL
Experiment: Two-electrode voltage-clamp inhibition of GABA current, receptor expressed in Xenopus oocytes
Assay type: cell-based
From the text: Complementary DNA (cDNA) encoding for the human GABAA proteins α1 (NM_001127645.2), α2 (NM_001377146.1), α3 (KJ620007.1), α4 (NM_000809.4), α5 (NM_000810.4), α6 (NM_000811.3), β2 (XM_054352312.1), β3 (M82919.1), γ2 (NM_000816.3) and δ (NM_000815.5) were ordered from Genewiz (www.genewiz.com; Leipzig, Germany); for each gene, GenBank accession numbers are provided in parentheses. When necessary, silent mutations were introduced to break NheI or XhoI internal restriction sites. […]

# QUERY_SMILES, SYSTEM_UNDER_TEST, IC50
records = [
    ("Cc1cc(C2=NO[C@@](c3cc(Cl)c(Cl)c(Cl)c3)(C(F)(F)F)C2)sc1C(=O)NCC(=O)NCC(F)(F)F", "Clu-GABA α2β2γ2 (Canis lupus familiaris, UniProt A0A8I3RPG5+A0A8I3S1N5+E2RSQ0)", "> 30 µM"),
]

###

biological target: Clu-GABA α2β2γ2 (Canis lupus familiaris, UniProt A0A8I3RPG5+A0A8I3S1N5+E2RSQ0); assay: Two-electrode voltage-clamp concentration-activation by the natural agonist, receptor expressed in Xenopus oocytes; details: agonist, 10 s applications, Xenopus oocytes, −80 mV
ENDPOINT_LABEL: EC50 (µM)

# QUERY_SMILES, MEAS_VALUE
measured = [
    ("NCCCC(=O)O", 42),
]

###

biological target: Hsa-GABA α2β2γ2 (Homo sapiens, UniProt P18507+P47869+P47870); assay: Two-electrode voltage-clamp inhibition of GABA current, receptor expressed in Xenopus oocytes
Sequence (P47869 29-451): as the sequence (A0A8I3S1N5 29-451) above
Sequence (P47870 26-474 isoform P47870-1 limits assumed): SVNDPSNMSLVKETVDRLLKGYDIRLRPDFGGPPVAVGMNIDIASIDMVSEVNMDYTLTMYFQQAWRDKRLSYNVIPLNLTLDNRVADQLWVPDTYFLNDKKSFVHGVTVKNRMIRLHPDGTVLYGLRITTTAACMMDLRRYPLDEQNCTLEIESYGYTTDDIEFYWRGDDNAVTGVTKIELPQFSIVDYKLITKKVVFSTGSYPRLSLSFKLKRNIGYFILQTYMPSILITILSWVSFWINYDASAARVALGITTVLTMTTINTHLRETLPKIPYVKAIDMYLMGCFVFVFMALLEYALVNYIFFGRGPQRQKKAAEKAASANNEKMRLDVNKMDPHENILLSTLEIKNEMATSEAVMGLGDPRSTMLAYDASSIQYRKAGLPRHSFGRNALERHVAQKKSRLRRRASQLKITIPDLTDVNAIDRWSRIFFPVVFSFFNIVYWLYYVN
Sequence (P18507 40-467 isoform P18507-1 limits assumed): as the sequence (E2RSQ0 40-467) above

# QUERY_SMILES, IC50
measured = [
    ("Cc1cc(C2=NO[C@@](c3cc(Cl)c(Cl)c(Cl)c3)(C(F)(F)F)C2)sc1C(=O)NCC(=O)NCC(F)(F)F", "> 30 µM"),
]

###

target: Clu-GABA α1β2γ2 (Canis lupus familiaris, UniProt A0A2H4NNI8+A0A8I3RPG5+E2RSQ0); assay: Two-electrode voltage-clamp concentration-activation by the natural agonist, receptor expressed in Xenopus oocytes; conditions: agonist, 10 s applications, Xenopus oocytes, −80 mV
Sequence (A0A2H4NNI8 28-456): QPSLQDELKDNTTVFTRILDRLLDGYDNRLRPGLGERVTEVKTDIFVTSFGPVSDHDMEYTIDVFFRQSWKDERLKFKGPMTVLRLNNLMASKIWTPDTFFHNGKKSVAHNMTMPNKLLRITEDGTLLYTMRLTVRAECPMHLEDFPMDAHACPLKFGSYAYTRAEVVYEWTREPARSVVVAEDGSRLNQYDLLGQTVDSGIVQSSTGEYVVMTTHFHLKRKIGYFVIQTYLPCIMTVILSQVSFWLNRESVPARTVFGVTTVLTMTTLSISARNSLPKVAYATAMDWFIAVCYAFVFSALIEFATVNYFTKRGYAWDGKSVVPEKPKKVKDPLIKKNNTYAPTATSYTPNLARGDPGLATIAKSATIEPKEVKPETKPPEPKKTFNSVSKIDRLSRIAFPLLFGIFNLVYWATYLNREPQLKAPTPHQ
Sequence (A0A8I3RPG5 25-473): as the sequence (A0A8I3RPG5 25-473) above
Sequence (E2RSQ0 40-467): as the sequence (E2RSQ0 40-467) above
ENDPOINT_LABEL: EC50 (µM)

# QUERY_SMILES, MEAS_VALUE
records = [
    ("NCCCC(=O)O", 10),
]

###

target: Hsa-GABA α5β2γ2 (Homo sapiens, UniProt P18507+P31644+P47870); experiment: Two-electrode voltage-clamp inhibition of GABA current, receptor expressed in Xenopus oocytes; conditions: Xenopus oocytes, −80 mV, 60 s pre-exposure, co-applied with GABA 0.3 µM (near EC10)
Sequence (P31644 32-462, one chain of several): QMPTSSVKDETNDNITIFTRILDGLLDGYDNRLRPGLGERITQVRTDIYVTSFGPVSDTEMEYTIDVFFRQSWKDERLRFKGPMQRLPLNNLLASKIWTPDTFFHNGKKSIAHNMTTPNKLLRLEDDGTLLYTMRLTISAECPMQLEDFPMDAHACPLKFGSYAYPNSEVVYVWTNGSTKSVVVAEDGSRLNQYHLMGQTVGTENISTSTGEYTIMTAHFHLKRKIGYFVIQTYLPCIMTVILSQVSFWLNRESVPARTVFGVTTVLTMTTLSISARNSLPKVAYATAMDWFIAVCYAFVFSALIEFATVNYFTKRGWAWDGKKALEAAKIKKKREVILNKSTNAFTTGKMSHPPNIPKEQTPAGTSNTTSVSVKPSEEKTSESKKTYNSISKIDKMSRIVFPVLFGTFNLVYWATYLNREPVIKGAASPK
pIC50: −log10 of the molar value.
ENDPOINT_LABEL: pIC50

# MOLECULE, MEAS_VALUE
records = [
    ("Cc1cc(C2=NOC(c3cc(Cl)cc(Cl)c3)(C(F)(F)F)C2)ccc1C(=O)NCC(=O)NCC(F)(F)F (stereo not drawn)", 5.57),
    ("O=C(CNC(=O)c1ccc(C2=NOC(c3cc(Cl)cc(C(F)(F)F)c3)(C(F)(F)F)C2)c2ccccc12)NCC(F)(F)F (stereo not drawn)", 5.20),
    ("CS(=O)(=O)CC(=O)N1CC2(C1)OCc1cc(C3=NO[C@@](c4cc(Cl)c(F)c(Cl)c4)(C(F)(F)F)C3)ccc12", 5.08),
]

###

Consider the following compounds and their measured average GABA current inhibition readings.
tested on: Clu-GABARs; test: Voltage-clamp inhibition, summary over the five canine subunit combinations; format: cell-based, Canis lupus familiaris; conditions: at 30 μM
ENDPOINT_LABEL: average GABA current inhibition (%)

# COMPOUND, UNIT_SYMBOL, MEAS_VALUE
rows = [
    ("O=C(CNC(=O)c1ccc(C2=NOC(c3cc(Cl)cc(C(F)(F)F)c3)(C(F)(F)F)C2)c2ccccc12)NCC(F)(F)F (stereo not shown)", "%", 57),
    ("CS(=O)(=O)CC(=O)N1CC2(C1)OCc1cc(C3=NO[C@@](c4cc(Cl)c(F)c(Cl)c4)(C(F)(F)F)C3)ccc12", "%", 57),
    ("Cc1cc(C2=NO[C@@](c3cc(Cl)c(Cl)c(Cl)c3)(C(F)(F)F)C2)sc1C(=O)NCC(=O)NCC(F)(F)F", "%", 20),
    ("Cc1cc(C2=NOC(c3cc(Cl)cc(Cl)c3)(C(F)(F)F)C2)ccc1C(=O)NCC(=O)NCC(F)(F)F (stereo not shown)", "%", 76),
]

###

molecular target: Clu-GABA α3β2γ2 (Canis lupus familiaris, UniProt A0A8I3PRS3+A0A8I3RPG5+E2RSQ0); experiment: Two-electrode voltage-clamp inhibition of GABA current, receptor expressed in Xenopus oocytes; format: cell-based
Sequence (A0A8I3PRS3 29-259): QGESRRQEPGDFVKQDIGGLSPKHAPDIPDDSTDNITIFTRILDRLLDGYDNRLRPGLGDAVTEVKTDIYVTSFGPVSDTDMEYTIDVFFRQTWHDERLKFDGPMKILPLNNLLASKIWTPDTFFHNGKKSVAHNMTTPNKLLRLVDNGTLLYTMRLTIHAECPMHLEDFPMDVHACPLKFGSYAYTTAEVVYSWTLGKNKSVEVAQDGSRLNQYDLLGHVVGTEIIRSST
Sequence (A0A8I3RPG5 25-473): as the sequence (A0A8I3RPG5 25-473) above
Sequence (E2RSQ0 40-467): as the sequence (E2RSQ0 40-467) above

# QUERY_SMILES, IC50
data = [
    ("Cc1cc(C2=NO[C@@](c3cc(Cl)c(Cl)c(Cl)c3)(C(F)(F)F)C2)sc1C(=O)NCC(=O)NCC(F)(F)F", "> 30 µM"),
]

###

# Lookup of reported pIC50 keyed by entry
biological target: Hsa-GABA α2β2γ2 (Homo sapiens, UniProt P18507+P47869+P47870); assay: Two-electrode voltage-clamp inhibition of GABA current, receptor expressed in Xenopus oocytes; conditions: Xenopus oocytes, −80 mV, 60 s pre-exposure, co-applied with GABA 3 µM (near EC10)
pIC50: −log10 of the molar value.

# MOLECULE, pIC50
data = [
    ("O=C(CNC(=O)c1ccc(C2=NOC(c3cc(Cl)cc(C(F)(F)F)c3)(C(F)(F)F)C2)c2ccccc12)NCC(F)(F)F (stereo not drawn) [Afoxolaner, afoxolaner]", 5.00),
    ("Cc1cc(C2=NOC(c3cc(Cl)cc(Cl)c3)(C(F)(F)F)C2)ccc1C(=O)NCC(=O)NCC(F)(F)F (stereo not drawn) [Fluralaner, fluralaner]", 5.72),
    ("CS(=O)(=O)CC(=O)N1CC2(C1)OCc1cc(C3=NO[C@@](c4cc(Cl)c(F)c(Cl)c4)(C(F)(F)F)C3)ccc12 [Sarolaner, sarolaner]", 4.71),
]

###

target: Hsa-GABA α5β2γ2 (Homo sapiens, UniProt P18507+P31644+P47870); experiment: Two-electrode voltage-clamp inhibition of GABA current, receptor expressed in Xenopus oocytes
pIC50: −log10 of the molar value.

# QUERY_SMILES, pIC50
records = [
    ("Cc1cc(C2=NO[C@@](c3cc(Cl)c(Cl)c(Cl)c3)(C(F)(F)F)C2)sc1C(=O)NCC(=O)NCC(F)(F)F", "< 4.52"),
]

###

target: Hsa-GABA α6β2γ2 (Homo sapiens, UniProt P18507+P47870+Q16445); assay: Two-electrode voltage-clamp inhibition of GABA current, receptor expressed in Xenopus oocytes
Sequence (Q16445 20-453): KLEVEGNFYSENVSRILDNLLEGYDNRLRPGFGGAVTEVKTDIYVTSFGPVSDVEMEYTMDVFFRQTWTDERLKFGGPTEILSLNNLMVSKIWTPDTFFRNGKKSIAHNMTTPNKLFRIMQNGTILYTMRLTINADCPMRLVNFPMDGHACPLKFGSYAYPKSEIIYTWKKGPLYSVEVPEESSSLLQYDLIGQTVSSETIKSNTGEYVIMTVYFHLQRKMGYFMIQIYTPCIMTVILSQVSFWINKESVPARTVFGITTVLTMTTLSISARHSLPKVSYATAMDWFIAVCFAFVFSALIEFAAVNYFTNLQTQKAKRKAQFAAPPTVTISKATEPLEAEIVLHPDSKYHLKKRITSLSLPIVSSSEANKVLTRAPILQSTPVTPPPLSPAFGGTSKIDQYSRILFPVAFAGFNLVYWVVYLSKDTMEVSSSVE
Sequence (P47870 26-474 isoform P47870-1 limits assumed): as the sequence (P47870 26-474 isoform P47870-1 limits assumed) above
Sequence (P18507 40-467 isoform P18507-1 limits assumed): as the sequence (E2RSQ0 40-467) above

# QUERY_SMILES, IC50
rows = [
    ("Cc1cc(C2=NO[C@@](c3cc(Cl)c(Cl)c(Cl)c3)(C(F)(F)F)C2)sc1C(=O)NCC(=O)NCC(F)(F)F", "> 30 µM"),
]

###

molecular target: Hsa-GABA α3β2γ2 (Homo sapiens, UniProt P18507+P34903+P47870); experiment: Two-electrode voltage-clamp inhibition of GABA current, receptor expressed in Xenopus oocytes
Sequence (P34903 29-492, one chain of several): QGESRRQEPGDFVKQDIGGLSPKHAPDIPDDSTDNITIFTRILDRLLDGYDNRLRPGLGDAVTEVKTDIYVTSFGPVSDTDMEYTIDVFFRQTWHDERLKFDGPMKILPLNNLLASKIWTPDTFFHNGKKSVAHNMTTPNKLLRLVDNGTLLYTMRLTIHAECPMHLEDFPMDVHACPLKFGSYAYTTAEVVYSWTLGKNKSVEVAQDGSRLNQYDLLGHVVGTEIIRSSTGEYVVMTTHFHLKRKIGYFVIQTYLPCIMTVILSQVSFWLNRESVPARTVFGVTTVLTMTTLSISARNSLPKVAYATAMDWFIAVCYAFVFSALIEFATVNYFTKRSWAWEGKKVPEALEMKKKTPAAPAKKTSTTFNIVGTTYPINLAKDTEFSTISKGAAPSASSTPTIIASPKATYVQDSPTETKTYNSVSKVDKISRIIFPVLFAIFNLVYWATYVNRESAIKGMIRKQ
ENDPOINT_LABEL: IC50

# MOLECULE, MEAS_VALUE
measured = [
    ("Cc1cc(C2=NO[C@@](c3cc(Cl)c(Cl)c(Cl)c3)(C(F)(F)F)C2)sc1C(=O)NCC(=O)NCC(F)(F)F [Lotilaner, lotilaner]", "> 30 µM"),
]

###

This listing pairs compounds with measured IC50.
Target: Hsa-GABA α3β2γ2 (Homo sapiens, UniProt P18507+P34903+P47870)
Assay: Two-electrode voltage-clamp inhibition of GABA current, receptor expressed in Xenopus oocytes
Settings: Xenopus oocytes, −80 mV, 60 s pre-exposure, co-applied with GABA 1 µM (near EC10)
Description: Complementary DNA (cDNA) encoding for the human GABAA proteins α1 (NM_001127645.2), α2 (NM_001377146.1), α3 (KJ620007.1), α4 (NM_000809.4), α5 (NM_000810.4), α6 (NM_000811.3), β2 (XM_054352312.1), β3 (M82919.1), γ2 (NM_000816.3) and δ (NM_000815.5) were ordered from Genewiz (www.genewiz.com; Leipzig, Germany); for each gene, GenBank accession numbers are provided in parentheses. When necessary, silent mutations were introduced to break NheI or XhoI internal restriction sites. […]

# COMPOUND, IC50 / µM
records = [
    ("Cc1cc(C2=NOC(c3cc(Cl)cc(Cl)c3)(C(F)(F)F)C2)ccc1C(=O)NCC(=O)NCC(F)(F)F (stereo not drawn) [Fluralaner, fluralaner]", 4.9),
    ("O=C(CNC(=O)c1ccc(C2=NOC(c3cc(Cl)cc(C(F)(F)F)c3)(C(F)(F)F)C2)c2ccccc12)NCC(F)(F)F (stereo not drawn) [Afoxolaner, afoxolaner]", 15),
    ("CS(=O)(=O)CC(=O)N1CC2(C1)OCc1cc(C3=NO[C@@](c4cc(Cl)c(F)c(Cl)c4)(C(F)(F)F)C3)ccc12 [Sarolaner, sarolaner]", 13.4),
]
